Tested on: KM20L2 colon
Assay: NCI tumour cell line growth inhibition, 48 h
value-type: TGI

Per the records, this molecule ( c1ccc(SC(Sc2ccccc2)=C2CCC2)cc1 ) has TGI equal to > 100 µM

Per the records, this molecule ( CC#Cc1c(O)c2c(c(O)c1C#CC)C(=O)c1ccccc1C2=O ) has TGI equal to > 100 µM

Per the records, this molecule ( O=C(O)Cc1cccc2c(=O)cc(-c3ccccc3)oc12 ) has TGI equal to > 250 µM

Per the records, this molecule ( COc1ccc(N2C(=O)C3CC(c4ccc(Br)cc4)c4c([nH]c5ccccc45)C3C2=O)cc1 (stereo not drawn) ) has TGI equal to 27.3 µM

Per the records, this molecule ( CSC(=NC(=O)c1ccccc1Cl)SCCSC(=NC(=O)c1ccccc1Cl)SC ) has TGI equal to > 100 µM

Per the records, this molecule ( O=S1(=O)c2ccccc2N(O)C2=NCCN21 ) has TGI equal to > 100 µM

Per the records, this molecule ( COc1ccc(/C=C/c2cc(OC)c(OC(C)=O)c(OC)c2)cc1 ) has TGI equal to > 100 µM

Per the records, this molecule ( CN(C)CCNc1ccc2ncn3c4ccc(O)cc4c(=O)c1c23 ) has TGI equal to 12.9 µM

---

Test system: IGROV1 ovarian
Experiment: NCI tumour cell line growth inhibition, 48 h; in the data active = GI50 below about 0.43 µM; inactive = the rest
Bench note: report the call from active, inactive

What classification did COc1cc(-c2nn(-c3cccc(NC(=O)Nc4ccc(Cl)c(C(F)(F)F)c4)c3)cc2-c2ccncc2)ccc1Cl end up with in this test?
inactive

What classification did NC(=S)N/N=C/c1ccc(OC(=O)COc2cc(Cl)c(Cl)cc2Cl)cn1 end up with in this test?
inactive

What classification did COc1ccc(Nc2nc(NCCNc3ccnc4cc(Cl)ccc34)nc(N3CCOCC3)n2)cc1 end up with in this test?
inactive

What classification did CC(=O)O.CN1[CH-]N(Cc2ccc(C#N)cc2)c2ccccc21.[Ag+] end up with in this test?
inactive

What classification did O=C1c2c(c(=O)[nH]c3ccccc23)[C@H](c2ccccc2)[C@@H]2CCCN12 end up with in this test?
inactive

What classification did Cc1cc2c(F)c(Oc3ncnc(Nc4ccc(N5C[C@@H](C)N[C@@H](C)C5)cc4)c3C#N)cc(F)c2[nH]1 end up with in this test?
inactive

What classification did COc1ccccc1C#Cc1ccccc1C#Cc1ccc(OCCCCCCOc2ccccc2C#Cc2ccccc2C#Cc2ccccc2OC)cc1 end up with in this test?
inactive

What classification did CCCc1nn(C)c2c(=O)[nH]c(-c3cc(S(=O)(=O)N4CCN(C)CC4)ccc3OCC)nc12 end up with in this test?
inactive

What classification did FC1(F)ON2CCc3ccccc3C2[C@H]1c1ccccc1 (stereo not given in full) end up with in this test?
inactive

What classification did COc1cnc2c(c1)C(=O)c1c-2n(CCCN2CCCC2)c(=O)c2cc([N+](=O)[O-])ccc12 end up with in this test?
active

What classification did CSc1cc([C@@H]2C[C@H]2c2ccc(Cl)cc2)on1 end up with in this test?
inactive

What classification did COc1cc(CCC[P+](c2ccccc2)(c2ccccc2)c2ccccc2)c(OC)c2c1OCO2 end up with in this test?
inactive

What classification did Cc1c(Cn2c(C)nc3c(C(=O)O)cc(N4CCOCC4)cc32)cccc1C(F)(F)F end up with in this test?
inactive

What classification did CCC(CC)n1cnc2c(-c3cnc(N)cn3)nc(N3CC4CCC(C3)O4)nc21 end up with in this test?
active

What classification did CCN(CC)CCN(CC)CC.CCN(CC)CCN(CC)CC.[Cu+2].[Cu+2].[O-][Cl+3]([O-])([O-])[O-].[OH3+].[OH3+] end up with in this test?
inactive

What classification did CCC[CH2][Sn](=[O])[CH2]CCC end up with in this test?
inactive

What classification did Cc1ccc(CNc2ccc3nc(CCC4CCCCC4)[nH]c3c2)cc1 end up with in this test?
inactive

What classification did COc1cc2nc(N3CCCN(C)CC3)nc(NC3CCN(Cc4ccccc4)CC3)c2cc1OC end up with in this test?
inactive

What classification did COc1ccc2c(c1)CCC1C2CC[C@@]2(C)C1CC[C@@H]2NC(=O)Cc1ccc(O)c(O)c1 (stereo not given in full) end up with in this test?
inactive

What classification did NCCCCC(NC(=O)C(N)CCCN=C(N)N)C(=O)NC(CCCCN)C(=O)NC(CCCN=C(N)N)C(=O)NC(CCCN=C(N)N)C(=O)NC(CCC(N)=O)C(=O)NC(CCCN=C(N)N)C(=O)NC(CCCN=C(N)N)C(=O)NC(CCCN=C(N)N)C(=O)NCC(=O)NCC(=O)O (stereo not given) end up with in this test?
inactive

---

Tested on: RXF 393 renal
Experiment: NCI tumour cell line growth inhibition, 48 h
value-type: TGI

Per the records, this compound ( CN(C)Cc1cc(Cl)c(O)c(CN(C)C)c1 ) has TGI equal to > 100 µM

Per the records, this compound ( CC1C(C)(C)C23CC12C1(OCCO1)C3Br (stereo unspecified) ) has TGI equal to > 100 µM

Per the records, this compound ( Cc1cc(N(CCC#N)CCC#N)ccc1/C(N=Nc1ccc([N+](=O)[O-])cc1)=N\NC(=O)c1cc(Cl)ccc1O ) has TGI equal to > 100 µM

Per the records, this compound ( O=C1C(Cl)=C(Cl)C(=O)C(CCNc2nccs2)=C1Cl ) has TGI equal to 46.2 µM

Per the records, this compound ( COc1ccc(/C=N\N(C)Cc2cccc3ccsc23)cc1 ) has TGI equal to > 100 µM

Per the records, this compound ( CCCCSC1=N/C(=C\c2ccccc2O)C(=O)N1 ) has TGI equal to > 100 µM

Per the records, this compound ( COC[C@H](NC(=O)c1cnc(C)s1)C(=O)N[C@@H](COC)C(=O)N[C@@H](Cc1ccccc1)C(=O)[C@@]1(C)CO1 ) has TGI equal to 33.9 µM

Per the records, this compound ( COC(=O)C1=C(C)NC(=O)N2[C@@H](CCOCc3ccccc3)CC[C@@H]12 ) has TGI equal to > 50 µM

Per the records, this compound ( CCOC(=O)C(NC(=O)c1cccc(Cl)c1)(Nc1ccc(S(=O)(=O)Nc2cc(C)on2)cc1)C(F)(F)F (stereo unspecified) ) has TGI equal to > 100 µM

Per the records, this compound ( CCOC(=O)c1c(N)sc2c1CC(C)CC2 (stereo unspecified) ) has TGI equal to 44.9 µM

Per the records, this compound ( O=C1c2c(c(=O)[nH]c3ccccc23)[C@H](c2ccccc2)[C@@H]2CCCN12 ) has TGI equal to 4.34 µM

---

Test system: T-47D breast
Experiment: NCI tumour cell line growth inhibition, 48 h
Where a SMILES comes first, the peptide text is derived from it. [ ]: non-standard residue; d: D form. pGlu = O=C1CC[CH](C(=O)O)N1; Thz = O=C(O)[CH]1CSCN1
Assignment: determine reported TGI for the given compounds.

T-47D breast data for COc1ccc(-c2ncnc3c2ncn3CC#CCCl)cc1 ; its TGI: 12.7 µM

T-47D breast data for Cc1ccc(CNc2ccc3nc(CCC4CCCCC4)[nH]c3c2)cc1 ; its TGI: 8.5 µM

T-47D breast data for C=C1C2CCC3C4(C)CCCC(C)(C(=O)O)C4CCC3(C2)C1OC(=O)/C(C)=C/C (stereo not given) ; its TGI: > 100 µM

T-47D breast data for Cn1c(-c2ccco2)ccc1-c1ccc(C=O)o1 ; its TGI: > 100 µM

T-47D breast data for CO/C=C(/C(=O)OC)[C@@H]1C[C@@H]1c1ccc2ccccc2c1 ; its TGI: 78.5 µM

T-47D breast data for CC1=C([Te]c2ccccc2)C(=O)c2ccccc2C1=O ; its TGI: 2.78 µM

T-47D breast data for CN(C)Cc1cc(Cl)c(O)c(CN(C)C)c1 ; its TGI: > 100 µM

T-47D breast data for C=CCC1(C(=O)OC)CCC/C(=N\O)C1 (stereo not given) ; its TGI: > 10 µM

T-47D breast data for Fc1cccc(COc2ccc(Nc3ncnc4onc(-c5ccccc5)c34)cc2)c1 ; its TGI: > 100 µM

T-47D breast data for Cc1ccc(OP(=O)(Oc2ccc(C)cc2)N2C=Cc3ccccc3C2C#N)cc1 (stereo not given) ; its TGI: > 100 µM

T-47D breast data for COc1ccc(CCN2CCN(CCCc3ccccc3)CC2)cc1 ; its TGI: > 100 µM

T-47D breast data for C=C(C)[C@@H]1CC[C@]2(CO)CC[C@]3(C)[C@H](CC[C@@H]4[C@@]5(C)CCCNC(C)(C)[C@@H]5CC[C@]43C)[C@@H]12 ; its TGI: 3.71 µM

T-47D breast data for S=C(NCc1ccccc1)Nc1sc(=NCc2ccccc2)nc2sc3c(c12)CCN(N1CCc2c(sc4nc(=NCc5ccccc5)sc(NC(=S)NCc5ccccc5)c24)C1)C3 ; its TGI: > 61.3 µM

T-47D breast data for CC1=CCC2CC1C(C(=O)c1c[nH]c3ccccc13)=NC2(C)C (stereo not given) ; its TGI: 99.2 µM

T-47D breast data for COc1ccc2c(c1)CCC1C2CC[C@@]2(C)C1CC[C@@H]2NC(=O)Cc1ccc(O)c(O)c1 (stereo not given in full) ; its TGI: 72.8 µM

T-47D breast data for COC(=O)[C@H](Cc1ccccc1)NC(=O)c1ccc(CNC(=O)/C=C/c2ccc(OCc3ccccc3)cc2)cc1 ; its TGI: 72.2 µM

T-47D breast data for COc1ccccc1C#Cc1ccccc1C#Cc1ccc(OCCCCCCOc2ccccc2C#Cc2ccccc2C#Cc2ccccc2OC)cc1 ; its TGI: > 100 µM

T-47D breast data for CCOP(=O)(OCC)Oc1c(OC)c2[nH]c(C(=O)OC)cc2c2c(C(=O)O)c[nH]c12 ; its TGI: > 100 µM

T-47D breast data for O=S(=O)(O)c1ccc(N=Nc2ccccc2)cc1 ; its TGI: > 100 µM

T-47D breast data for COc1ccc(S(=O)(=O)Nc2ccc(-c3csc(N4C(=O)/C(=C/c5ccccc5[N+](=O)[O-])N=C4c4ccccc4)n3)cc2)cc1Cl ; its TGI: 75.2 µM

T-47D breast data for O=[N+]([O-])c1ccc(-c2csc(N=Nc3c(O)[nH]c4ccccc34)n2)cc1 ; its TGI: > 100 µM

T-47D breast data for CC(C)(C)c1cc(/C=C(\C#N)C2=NCCO2)cc(C(C)(C)C)c1O ; its TGI: 9.13 µM

T-47D breast data for COc1ccc(C(=O)/C=C/c2ccc(OCCCCCCCCCCOc3ccc(/C=C/C(=O)c4ccc(OC)cc4)cc3)cc2)cc1 ; its TGI: > 100 µM

T-47D breast data for COC(=O)C(Cc1c[nH]c2ccccc12)NC(=O)C(Cc1cnc[nH]1)NC(=O)C1CCC(=O)N1C(=O)OCc1ccccc1 (stereo not given) ; its TGI: > 100 µM

T-47D breast data for CC(NC(=O)C1CCC(=O)N1)C(=O)N1CCCC1C(N)=O (stereo not drawn) ([pGlu]-Ala-Pro-NH2; configuration not given here) ; its TGI: > 100 µM

T-47D breast data for CCOC(=O)c1c(N)sc2c1CC(C)CC2 (stereo not given) ; its TGI: > 100 µM

T-47D breast data for COC[C@H](NC(=O)c1cnc(C)s1)C(=O)N[C@@H](COC)C(=O)N[C@@H](Cc1ccccc1)C(=O)[C@@]1(C)CO1 ; its TGI: > 71.2 µM

T-47D breast data for O=C(O)Cc1cccc2c(=O)cc(-c3ccccc3)oc12 ; its TGI: > 1000 µM

T-47D breast data for Cn1c(-c2ccc(C=O)o2)ccc1-c1ccc(C=O)o1 ; its TGI: > 100 µM

T-47D breast data for Cc1ccc2c(c1)nc1n2C(c2c(F)cccc2F)SC1 (stereo not given) ; its TGI: > 100 µM

T-47D breast data for NC1=Nc2ccccc2Sc2nncn21 ; its TGI: > 100 µM

T-47D breast data for CC(C)(C)C1=C(Br)C(F)(C(C)(C)C)OP1(=O)c1ccccc1 (stereo not given) ; its TGI: 42.1 µM

T-47D breast data for CSc1ccc(C2=NN(C(C)=O)C(c3ccc(-c4cc(Cl)c(Cl)cc4Cl)o3)C2)cc1 (stereo not given) ; its TGI: 37.2 µM

T-47D breast data for Nc1nc(Cl)cc(NCC2(CCO)CCC2)n1 ; its TGI: > 100 µM

T-47D breast data for COC(=O)Nc1nc2ccc(NS(=O)(=O)c3cccs3)cc2[nH]1 ; its TGI: 85.3 µM

T-47D breast data for O=C1CCC(C(=O)N2CSCC2C(=O)O)N1 (stereo not given) ([pGlu]-[Thz]-OH; configuration not given here) ; its TGI: > 100 µM

T-47D breast data for Cc1ccc(OCC2CO2)c(Br)c1 (stereo not given) ; its TGI: > 100 µM

T-47D breast data for C[C@H](Nc1nc(N)c(N=O)c(=O)n1C)C(=O)O ; its TGI: > 10 µM

T-47D breast data for O=S(=O)(N=C1C(Cl)=C(Cl)C(=NS(=O)(=O)c2ccccc2)C(Cl)=C1Cl)c1ccccc1 ; its TGI: > 100 µM

T-47D breast data for COc1cc2nc(N3CCCN(C)CC3)nc(NC3CCN(Cc4ccccc4)CC3)c2cc1OC ; its TGI: 6.25 µM
